# TESTED_SYSTEM: T1, secretory phospholipase A2 (sPLA2) (Homo sapiens, UniProt P14555 P14555:21-144)
# T1 sequence: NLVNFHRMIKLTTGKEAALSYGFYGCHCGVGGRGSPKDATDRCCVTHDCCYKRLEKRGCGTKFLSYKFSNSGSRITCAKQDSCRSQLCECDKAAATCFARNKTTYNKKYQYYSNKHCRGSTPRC
# MEASUREMENT_DESCRIPTION: filter; biphasic, Kd2 450 nM, mole fraction 0.35; TBSC, 37 C
# ASSAY_CONTEXT: tags: supplied by Eli Lilly
# Method: The nitrocellulose filter partitioning method was used as described in SELEX Patent Applications to determine the affinity of RNA ligands for sPLA_2 and for other promins. […] The filters were air-dried and counted in a Beckman liquid scintillation counter without fluor. The dissociation constants for representative members of families I–VI, orphan and other ligands were determined by nitrocellulose filter binding experiments and are listed in Table III. […]
RESULT_TYPE: Kd

Quick check: Kd of 86t (ssRNA) RNA: GGGAGCUCAGAAUAAACGCUCAACGCCUCAUGCCAAUGCGGGAGGGUGGGUGGUUCGACAUGAGGCCCGGAUCCGGC ?
2.8 nM
